Please respond with reported pIC50 for every item in the list.
- target_entity: HDAC6 human recombinant enzyme (Homo sapiens (Human))
- Sequence (Q9UBN7 whole entry): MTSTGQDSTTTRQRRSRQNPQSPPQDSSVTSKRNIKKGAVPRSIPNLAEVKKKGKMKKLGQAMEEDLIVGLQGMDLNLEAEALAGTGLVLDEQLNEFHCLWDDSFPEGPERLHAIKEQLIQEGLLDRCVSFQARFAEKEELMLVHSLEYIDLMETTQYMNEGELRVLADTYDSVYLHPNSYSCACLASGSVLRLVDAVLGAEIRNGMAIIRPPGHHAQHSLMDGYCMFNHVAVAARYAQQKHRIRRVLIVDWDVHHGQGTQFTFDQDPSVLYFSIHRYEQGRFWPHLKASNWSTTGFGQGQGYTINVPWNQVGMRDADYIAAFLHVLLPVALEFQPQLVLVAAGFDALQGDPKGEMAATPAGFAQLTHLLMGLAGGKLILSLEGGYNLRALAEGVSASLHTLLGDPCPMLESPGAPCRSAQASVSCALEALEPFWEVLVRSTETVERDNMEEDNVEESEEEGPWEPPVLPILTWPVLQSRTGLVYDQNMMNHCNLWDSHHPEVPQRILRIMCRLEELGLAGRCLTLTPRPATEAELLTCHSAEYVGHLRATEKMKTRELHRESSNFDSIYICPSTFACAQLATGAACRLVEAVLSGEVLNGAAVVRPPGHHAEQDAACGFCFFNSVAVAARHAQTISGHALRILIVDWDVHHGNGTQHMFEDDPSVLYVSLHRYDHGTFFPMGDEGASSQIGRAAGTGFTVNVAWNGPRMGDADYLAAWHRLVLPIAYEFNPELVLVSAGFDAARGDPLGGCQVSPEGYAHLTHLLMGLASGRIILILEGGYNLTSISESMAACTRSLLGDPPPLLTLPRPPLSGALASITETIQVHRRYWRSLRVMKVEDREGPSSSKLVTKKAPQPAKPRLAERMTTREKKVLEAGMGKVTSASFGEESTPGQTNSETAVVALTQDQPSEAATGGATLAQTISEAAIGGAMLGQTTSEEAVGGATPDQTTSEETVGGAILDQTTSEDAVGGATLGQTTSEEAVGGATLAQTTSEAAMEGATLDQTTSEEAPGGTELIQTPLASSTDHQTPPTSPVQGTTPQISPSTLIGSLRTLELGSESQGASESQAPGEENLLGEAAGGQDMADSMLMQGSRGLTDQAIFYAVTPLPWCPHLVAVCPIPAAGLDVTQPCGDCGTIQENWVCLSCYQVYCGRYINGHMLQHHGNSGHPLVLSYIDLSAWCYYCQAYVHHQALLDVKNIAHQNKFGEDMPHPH
- experiment_summary: Histone Deacetylase Assay (BPS Biosciences), HDAC6
pIC50: −log10 of the molar value. Where a name gives a salt, the structure may show the parent alone.

Below, 5 compounds whose answers are already recorded.
[
  {
    "compound": "CC(NC1CC1c1ccccc1)[C@H]1CC[C@H](C(=O)NO)CC1 (stereo partly drawn) [Example 34, TFA Salt]",
    "target_entity": "HDAC6 human recombinant enzyme (Homo sapiens (Human))",
    "pIC50": "< 6.00"
  },
  {
    "compound": "Nc1ccccc1NC(=O)c1ccc(/C=C/C(=O)N2CC(CNC3CC3c3ccc(F)cc3)C2)cc1 (stereo not drawn) [Example 157, TFA Salt]",
    "target_entity": "HDAC6 human recombinant enzyme (Homo sapiens (Human))",
    "pIC50": "< 5.00"
  },
  {
    "compound": "Nc1ccc(F)cc1NC(=O)c1ccc(CCCN2CCC(CNC3CC3c3ccc(F)cc3)CC2)cc1 (stereo not drawn) [Example 132, TFA Salt]",
    "target_entity": "HDAC6 human recombinant enzyme (Homo sapiens (Human))",
    "pIC50": "< 5.00"
  },
  {
    "compound": "O=C(NO)c1cccc(CNC2CC2c2ccccc2)c1 (stereo not drawn) [Example 27, TFA]",
    "target_entity": "HDAC6 human recombinant enzyme (Homo sapiens (Human))",
    "pIC50": "< 6.00"
  },
  {
    "compound": "Nc1ccccc1NC(=O)c1ccc(OCCNC2CC2c2ccc(F)cc2)cc1 (stereo not drawn) [Example 148, TFA Salt]",
    "target_entity": "HDAC6 human recombinant enzyme (Homo sapiens (Human))",
    "pIC50": "< 5.00"
  }
]

Moving on to another compound below.
Value of measured pIC50 for the entry O=C(NO)c1ccc(OCCN2CCC(CNC3CC3c3ccccc3)CC2)nc1 (stereo not drawn) [Example 97, TFA Salt] : < 5.00

====

- experiment_summary: Metabolic stability in liver microsomes, HLM
- applied_conditions: 1 μM, NADPH
Counter-ions that a name gives are not always drawn.
Please respond with reported Metabolic stability HLM % remaining in 30 min for every item in the list.

[
  {
    "compound": "Cn1ccc(-c2ccc(C3CC3NCC3CCN(CCCc4ccc(C(=O)NO)cc4)CC3)cc2)cc1=O (stereo not drawn) [Example 60, TFA Salt]",
    "value_measured": "73%"
  },
  {
    "compound": "Cc1noc(C)c1-c1ccc(C2CC2NCC2CCN(CCCc3ccc(C(=O)NO)cc3)CC2)cc1.O=C(O)C(F)(F)F (stereo not drawn)",
    "value_measured": "82%"
  },
  {
    "compound": "O=C(NO)c1ccc(CS(=O)(=O)NCCN2CCC(CNC3CC3c3ccccc3)CC2)cc1 (stereo not drawn) [Example 86, TFA Salt]",
    "value_measured": "71%"
  },
  {
    "compound": "COc1ccc(C2CC2NCC2CCN(CCCc3ccc(C(=O)Nc4ccccc4N)cc3)CC2)cc1 (stereo not drawn) [Example 123, TFA Salt]",
    "value_measured": "82%"
  },
  {
    "compound": "Nc1ccccc1NC(=O)c1ccc(CCCn2cnc(CNC3CC3c3ccccc3)c2)cc1 (stereo not drawn) [Example 136, TFA Salt]",
    "value_measured": "4%"
  }
]

I would be grateful if you could provide Metabolic stability HLM % remaining in 30 min for each of the following entries.
1. Nc1ccccc1NC(=O)c1ccc(CCCN2CC3(CC(NC4CC4c4ccccc4)C3)C2)cc1 (stereo not drawn) [Example 127, TFA Salt]
2. O=C(NO)c1ccc(CCC(=O)N2CCN(C(=O)CNC3CC3c3ccccc3)CC2)cc1 (stereo not drawn) [Example 92, TFA Salt]

1. 17%
2. 95%
